Test system: OVCAR-4 ovarian
Experiment: NCI-60 one-dose screen, 48 h (100 = growth as untreated, 0 = no growth, -100 = all killed)
Settings: 10 µM unless noted
About 83,000 compounds went through this panel and 20% of them were active in at least one assay; those are over-represented in the sample as a whole. Activity calls are given as the source filed them. The calls were made as follows: active = growth percent below 10; inactive = the rest.
measured-metric: growth

>>> result("O=c1c2ccccc2[nH]n1Cc1ccc2c(c1)OCO2")
"105% (inactive)"
>>> result("C=C(C)[C@@H]1C/C=C(\\COC(=O)[C@H](OC(C)=O)C(NC(=O)c2ccccc2)c2ccccc2)CC[C@H]2O[C@]2(C)CC/C=C(\\C)CC1 (stereo partly drawn)")
"62.3% [5 µM] (inactive)"
>>> result("O=C1CCC(=O)N1C1CCCCC1")
"104% (inactive)"
>>> result("Nc1nc(-c2cc3c(cc2Cl)NC(=O)/C3=C/c2ccc(Cl)cc2)cs1")
"48.6% (inactive)"
>>> result("CCCCOc1nc2ccc(Cl)cc2cc1/C=C/C(=O)/C=C/c1ccc(Cl)cc1")
"91.5% (inactive)"
>>> result("COc1ccc(Cl)cc1NC(=O)c1cc2c(n1C)-c1nc(NC(=O)C(C)C)sc1CC2")
"66% (inactive)"
>>> result("CC(C)(c1ccc(OCC(O)CNCc2ccco2)cc1)c1ccc(OCC(O)CNCc2ccco2)cc1 (stereo not drawn)")
"96% (inactive)"
>>> result("CCCCNc1cc(C(=O)O)cc(S(N)(=O)=O)c1Oc1ccccc1")
"105% (inactive)"
